test_description: yeast display, Sf9 membrane polyspecificity reagent, FACS + sequencing; frameworks hold sequencing errors
measure: polyreactivity (PSR sort gate)

QVQLVESGGGLVHAGGSLRLSCAASGRTLKYYAMGWYRQAPGKERELVAAISGGDSTYYADSVKGRFTISRDNAKNTVYLQMNSLKPEDTAVYYCNARRFIWWYPYLRDYWGQGTQVTVSS = high polyreactivity
QVQHVESGGGLVQAGGSLRLSCAASGSIFSVYAMGWYRPEPGKASQLFAGITRGGSTYADSVKGRFTISRDNAKNTVYLQMNSLKPEDTAVYYCAADALIATPSWGKYNYWVQGTQVTVSS = high polyreactivity
QVQLVESCGVLVQAGGSLRLSCAASGFILYGNAMGWYRQAHGKERELVAAISRRGGSTYYADSVKGRFTISRDNAKNTVYLQMNSLKPEDTAVYYCAKDGPGGGTRIYDYWGLGTQVTVSS = high polyreactivity
QVQLVESGGGLVQAGGSLRLSCAASGSTFQRNTMGWYRQAPGKERELVADITWSGGNTYYADSVKGRFTISRDNAKNTVYLQMNSLKPEDTAVYYCAAQNVRVGWHASTSYPCPLDYWGPGTQVTVSS = low polyreactivity
QVQLVESGGGLVQAGGSLRLSCAASGFIFVTYAMGWYRQAPGKERELVAAITNSGGTTYYADSVKGRFTISRDNAKNTVYLQMNSLKPEDTAVYYCNKPYGAETAHREFDYWGQGTHVTVSS = low polyreactivity
QVQLVESGGGLVQAGGSLRLSCAASGFTFWAYAMGWYRHAPGKEMEVVAAISKTGGRTYYADSVKGRFTISRDNAKNNDYLQINSLKPEDTAVYYCAVDITGLYYPVDYWGQGTQVTVSS = high polyreactivity
QGQLVESGGGLVQAGGSLRLSCAASGLTFYYYARGWYRQAPGKERELVATISSRGGSTNYADSVKGRFTISRDNAKNTVYLQMNSLKPEDTAVYYCATDNSGYPRLNYWGQGTHVTVSS = high polyreactivity
QVQLVESGGGLVQAGGSLRLSCAASGLIFKSYAMGWYRQAPGKERELVAAITWSGGRTYYADSVKGRFTISRDNAKNTVYLQMNSLKPEDTAVYYCAGREYLPPYYYWGQGTQVTVSS = high polyreactivity
QVQLVESGGGLVQAGGSLRLSCAASGSTFDHYAMGWYRPAPGKERELVAAISYSGSTTDYADSVKGRFTISRDNAKNTVYLQMNSLKPVDTAVYYFAASGDVIQSPMDYWGQGTQVTVSS = low polyreactivity
QVQLVESGGGLVQAGGSLRLSCAASGSIFRSYAMGWYRQAPGKERELVAAISRRGGSTYYADSVKGRFTISRDNAKNTVYLQMNSLKPADTGVYYCAAVRYNSRVSTTPSDMYYWGQGTQVTVSS = low polyreactivity

Switching to the query record.
Request: polyreactivity (PSR sort gate) lookup needed for QVQLVESGGGLVQAGGSLRLSCAASGLIFQVYDMGWYRQAPGKERELVAAISSGSNTNYADSVKGRFTISRDNAKNTVYLQMNSLKPEDTAVYYCAASWGYGALTPDMGYWGQGTQVTVSS , thanks.
Response: low polyreactivity
